- EXPERIMENTAL_TARGET: T1, LukF
- T1 chain: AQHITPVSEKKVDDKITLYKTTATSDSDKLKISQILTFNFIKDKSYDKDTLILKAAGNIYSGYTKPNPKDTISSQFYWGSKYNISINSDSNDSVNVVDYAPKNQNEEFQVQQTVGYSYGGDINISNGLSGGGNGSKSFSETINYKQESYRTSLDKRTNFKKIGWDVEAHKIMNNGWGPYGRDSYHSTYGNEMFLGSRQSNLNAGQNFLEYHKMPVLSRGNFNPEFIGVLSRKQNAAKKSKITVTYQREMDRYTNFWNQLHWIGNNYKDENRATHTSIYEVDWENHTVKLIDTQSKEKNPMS
- ASSAY_INFO: MSD solution equilibrium; Fab
Entries and their Kd

BINDER	Kd (nM)
AB-28 (antibody, V domains shown) VH: QVQLQESGPGLVKPSETLSLTCAVSGYSISSGMGWGWIRQPPGKGLEWIGSIDQRGSTYYNPSLKSRVTISVDTSKNQFSLKLSSVTAADTAVYYCARDAGHGVDMDVWGKGTTVTVSS VL: DIQMTQSPSSVSASVGDRVTITCRASQGISRWLAWYQQKPGKAPKLLIYAASSLQSGVPSRFSGSGSGTDFTLTISSLQPEDFATYYCQQGYVFPLTFGGGTKVEIK	0.13
AB-28-11 (antibody, V domains shown) VH: QVQLQESGPGLVKPSETLSLTCAVSGYSISSGMGWDWIRQPPGKGLEWIGSIDQRGSTYYNPSLEGRVTISVDTSKNQFSLKLSSVTAADTAVYYCARDAGHGVDMDVWGKGTTVTVSS VL: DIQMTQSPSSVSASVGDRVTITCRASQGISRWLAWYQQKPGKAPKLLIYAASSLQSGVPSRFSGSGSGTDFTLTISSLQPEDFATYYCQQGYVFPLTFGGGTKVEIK	0.071
AB-28-9 (antibody, V domains shown) VH: EVQLQESGPGLVRPSETLSLTCAVSGYSISSGMGWGWIRQPPGKGLEWIGSIDQRGSTYYNPSLKSRVTISVDTSKNQFSLKLSSVTAADTAVYYCARDAGHAVDMDVWGKGTTVTVSS VL: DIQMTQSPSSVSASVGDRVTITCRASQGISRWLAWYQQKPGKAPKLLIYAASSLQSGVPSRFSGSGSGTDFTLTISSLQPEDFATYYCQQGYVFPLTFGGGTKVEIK	0.13
AB-28-12 (antibody, V domains shown) VH: QVQLQESGPGLVKPSETLSLTCAVSGYSISSGMGWDWIRQPPGKGREWIGSIDQRGSTYYNPSLEGRVTISVDTSKNQFSLKLSSVTAADTAVYYCARDAGHGVDMDVWGKGTTVTVSS VL: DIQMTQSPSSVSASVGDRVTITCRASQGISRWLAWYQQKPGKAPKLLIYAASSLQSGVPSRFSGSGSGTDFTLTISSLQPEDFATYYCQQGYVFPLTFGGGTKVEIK	0.063
